# Test system: TK-10 renal
# PROCEDURE_TEXT: NCI tumour cell line growth inhibition, 48 h; in the data active = GI50 below about 0.43 µM; inactive = the rest
The reply should name one outcome from t (active), f (inactive)

CC1(C)Cc2c(Br)c(Br)c(Br)c(OCC(O)CN3CCN(c4ccccn4)CC3)c2O1 (stereo unspecified) : f
CC1SC2(CCCCC2)N(NC(=O)c2[nH]c3ccc(Br)cc3c2-c2ccccc2)C1=O (stereo unspecified) : f
CN(CCCCCl)P(=O)(OCc1ccc([N+](=O)[O-])o1)OCC1OC(n2cnc([N+](=O)[O-])c2N)C(O)C1O (stereo unspecified) : f
CC(C)(C)OC(=O)NCc1cccc(N=C=S)c1 : f
Cc1[nH]c2cc(F)ccc2c1-c1nc2c3cccnc3c3ncccc3c2[nH]1 : t

Per the assay record, what outcome was assigned to `COC(=O)[C@H](Cc1cn(C)cn1)NC(=O)[C@H](C)NC(=O)Nc1cc(C(F)(F)F)cc(C(F)(F)F)c1` ? f
